SYSTEM NAME: human complement component C5 (human), P01031
Sequence (P01031 19-673 limits assumed, chain 1 of 2): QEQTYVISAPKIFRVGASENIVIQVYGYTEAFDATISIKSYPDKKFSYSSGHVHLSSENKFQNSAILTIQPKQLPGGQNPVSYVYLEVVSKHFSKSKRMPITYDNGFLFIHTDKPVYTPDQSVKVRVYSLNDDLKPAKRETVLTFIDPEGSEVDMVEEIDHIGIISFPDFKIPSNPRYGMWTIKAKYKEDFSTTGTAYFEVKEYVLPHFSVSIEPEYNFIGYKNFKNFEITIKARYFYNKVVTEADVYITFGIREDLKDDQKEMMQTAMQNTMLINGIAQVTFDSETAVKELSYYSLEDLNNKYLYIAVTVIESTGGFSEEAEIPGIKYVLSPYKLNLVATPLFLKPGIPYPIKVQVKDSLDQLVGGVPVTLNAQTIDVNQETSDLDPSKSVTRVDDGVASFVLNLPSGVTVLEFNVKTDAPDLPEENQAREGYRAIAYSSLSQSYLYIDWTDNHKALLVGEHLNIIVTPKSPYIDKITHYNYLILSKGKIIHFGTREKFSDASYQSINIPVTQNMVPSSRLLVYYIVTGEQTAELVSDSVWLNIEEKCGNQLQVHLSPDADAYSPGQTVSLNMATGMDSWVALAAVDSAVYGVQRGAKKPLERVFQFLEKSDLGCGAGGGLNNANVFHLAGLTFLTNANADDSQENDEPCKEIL
Sequence (P01031 678-1676 limits assumed, chain 2 of 2): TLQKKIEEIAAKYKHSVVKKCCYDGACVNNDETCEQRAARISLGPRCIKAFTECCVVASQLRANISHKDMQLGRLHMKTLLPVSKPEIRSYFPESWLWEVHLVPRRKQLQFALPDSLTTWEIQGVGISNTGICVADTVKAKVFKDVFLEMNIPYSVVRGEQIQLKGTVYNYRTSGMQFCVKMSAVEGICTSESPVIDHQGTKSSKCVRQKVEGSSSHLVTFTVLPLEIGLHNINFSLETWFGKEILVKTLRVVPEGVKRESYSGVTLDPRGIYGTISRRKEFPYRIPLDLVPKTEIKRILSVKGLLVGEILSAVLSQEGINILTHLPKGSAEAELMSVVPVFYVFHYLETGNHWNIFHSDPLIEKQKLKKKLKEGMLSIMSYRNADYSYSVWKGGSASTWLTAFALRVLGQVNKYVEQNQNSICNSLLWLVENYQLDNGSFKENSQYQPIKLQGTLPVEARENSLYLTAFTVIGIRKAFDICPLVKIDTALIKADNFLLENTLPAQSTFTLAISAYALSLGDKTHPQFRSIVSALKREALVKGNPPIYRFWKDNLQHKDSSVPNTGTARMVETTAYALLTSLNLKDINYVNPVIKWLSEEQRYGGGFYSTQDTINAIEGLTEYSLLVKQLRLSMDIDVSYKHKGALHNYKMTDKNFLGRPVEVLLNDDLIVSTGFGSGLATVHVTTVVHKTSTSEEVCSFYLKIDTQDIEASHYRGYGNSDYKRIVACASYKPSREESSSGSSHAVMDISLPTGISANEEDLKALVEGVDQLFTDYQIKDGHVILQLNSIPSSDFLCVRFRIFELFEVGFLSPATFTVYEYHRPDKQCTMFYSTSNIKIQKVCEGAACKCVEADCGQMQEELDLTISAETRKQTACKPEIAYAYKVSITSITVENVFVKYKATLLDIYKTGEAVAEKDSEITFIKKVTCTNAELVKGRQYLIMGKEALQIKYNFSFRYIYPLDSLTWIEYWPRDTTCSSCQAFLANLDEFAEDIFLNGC
pKd: −log10 of the molar value.
OUTCOME MEASURE: pKd

* GSGSCPDGFSYRSWDDFCCPMVGRCLAPRNGSENLYFQ (modifications not checked) [K149 knob domain peptide cleaved from the 645 Fab] | 7.44
* GSTCPDNYREVDGCDPYDCCLTTWCTNSYCTRYIENLYFQ (modifications not checked) [K136 knob domain peptide cleaved from the 645 Fab] | 8.19
